target: Peroxisome proliferator-activated receptor alpha (Homo sapiens)
Sequence (Q07869 whole entry): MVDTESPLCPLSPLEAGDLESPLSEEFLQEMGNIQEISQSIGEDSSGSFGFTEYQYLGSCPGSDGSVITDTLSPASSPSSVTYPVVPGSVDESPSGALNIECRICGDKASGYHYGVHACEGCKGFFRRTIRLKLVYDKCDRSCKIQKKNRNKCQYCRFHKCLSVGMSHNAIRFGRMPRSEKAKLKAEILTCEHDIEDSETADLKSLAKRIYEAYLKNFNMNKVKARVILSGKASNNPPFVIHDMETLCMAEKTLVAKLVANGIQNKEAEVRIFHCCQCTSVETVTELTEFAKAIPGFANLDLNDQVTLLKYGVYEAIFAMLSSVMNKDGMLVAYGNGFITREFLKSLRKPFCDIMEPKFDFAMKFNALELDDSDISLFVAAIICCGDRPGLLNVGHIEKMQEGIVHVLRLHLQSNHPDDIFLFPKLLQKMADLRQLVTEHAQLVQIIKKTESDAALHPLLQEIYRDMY
# note: boundary value 400 nM maps to rule not met; EC50 below it maps to rule met

Known results for molecules:
# Smiles Record, Category Label
records = [
    ("Cc1nc(-c2ccc(C(F)(F)F)cc2)sc1C(=O)NCc1ccc(NC(=O)C(F)(F)F)cc1", "rule not met"),
    ("Cc1csc(-c2ccc(C(=O)NCc3ccc(OC(C)(C)C(=O)O)cc3)cc2)n1", "rule not met"),
]

Lookup: EC50 strictly < 400 nM for this molecule? "O=C(NCc1ccc(NS(=O)(=O)C(F)(F)F)cc1)c1ccc(-c2ccc(Cl)cc2)cc1"
Found: rule met

Lookup: Determine if "CCCCS(=O)(=O)Nc1ccc(CNC(=O)c2sc(-c3ccc(C(F)(F)F)cc3)nc2C)cc1" shows EC50 strictly lower than 400 nM.
Found: rule met

Lookup: Find out if reported EC50 for "Cc1nc(-c2ccc(C(F)(F)F)cc2)sc1C(=O)NCc1ccc(NS(=O)(=O)C(C)C)cc1" is less than 400 nM
Found: rule met

---

Entries with reported pEC50 on Peroxisome proliferator-activated receptor alpha (Homo sapiens)
Numbers only, as −log10 of the molar value.

Solved entries (count: 3):
# Smiles Record, pEC50
measured = [
    ("COc1ccc2sc(C(=O)NCc3ccc(OC(C)(C)C(=O)O)cc3)cc2c1", 5.22),
    ("COc1ccc2sc(C(=O)NCc3ccc(NS(=O)(=O)C(F)(F)F)cc3)cc2c1", 7.10),
    ("Cc1nc(-c2ccc(C(F)(F)F)cc2)sc1C(=O)NCc1ccc(CNS(=O)(=O)C(F)(F)F)cc1", 7.10),
]

Hi, could you look up pEC50 for each item in my list?
1. Cc1ccc(S(=O)(=O)Nc2ccc(CNC(=O)c3sc(-c4ccc(C(F)(F)F)cc4)nc3C)cc2)cc1
2. CC(C)(Oc1ccc(CNC(=O)c2ccc(-c3ccc(C#N)cc3)cc2)cc1)C(=O)O
3. Cc1csc(-c2ccc(C(=O)NCc3ccc(NS(=O)(=O)C(F)(F)F)cc3)cc2)n1
4. CC(C)(Oc1ccc(CNC(=O)c2ccc(-c3ccc(Cl)cc3)cc2)cc1)C(=O)O
5. Cc1nc(-c2ccc(C(F)(F)F)cc2)sc1C(=O)NCc1ccc(NS(C)(=O)=O)cc1
6. N#Cc1ccc(-c2ccc(C(=O)NCc3ccc(NS(=O)(=O)C(F)(F)F)cc3)cc2)cc1
7. Cc1nc(-c2ccc(C(F)(F)F)cc2)sc1C(=O)NCc1ccc(NS(=O)(=O)C(F)(F)F)cc1

Found:
1: 6.00; 2: 6.00; 3: 7.22; 4: 7.15; 5: 7.22; 6: 7.70; 7: 9.52

---

Target: Peroxisome proliferator-activated receptor gamma (Homo sapiens, UniProt P37231)
Sequence (P37231 whole entry): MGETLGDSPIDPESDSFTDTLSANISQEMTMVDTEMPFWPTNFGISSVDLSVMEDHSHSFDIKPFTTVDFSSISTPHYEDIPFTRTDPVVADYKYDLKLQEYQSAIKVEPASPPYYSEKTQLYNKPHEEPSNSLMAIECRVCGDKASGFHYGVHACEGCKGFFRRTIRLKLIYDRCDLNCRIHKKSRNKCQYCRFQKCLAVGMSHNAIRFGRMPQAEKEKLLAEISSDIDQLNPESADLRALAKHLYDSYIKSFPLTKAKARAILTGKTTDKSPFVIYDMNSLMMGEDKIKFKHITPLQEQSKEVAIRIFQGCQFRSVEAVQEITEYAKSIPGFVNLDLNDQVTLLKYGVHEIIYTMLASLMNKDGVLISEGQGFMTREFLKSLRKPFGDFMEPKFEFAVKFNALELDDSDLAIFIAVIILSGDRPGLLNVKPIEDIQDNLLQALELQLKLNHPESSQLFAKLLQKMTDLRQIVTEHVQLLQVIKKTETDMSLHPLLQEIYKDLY
pEC50: −log10 of the molar value.
So I've got a bunch of compounds here, and I need their pEC50 values.

Previously resolved entries follow.
# Compound, Study Target, pEC50
records = [
    ("Cc1ccc(S(=O)(=O)Nc2ccc(CNC(=O)c3sc(-c4ccc(C(F)(F)F)cc4)nc3C)cc2)cc1", "Peroxisome proliferator-activated receptor gamma (Homo sapiens, UniProt P37231)", "< 5.00"),
    ("Cc1nc(-c2ccc(C(F)(F)F)cc2)sc1C(=O)NCc1ccc(CNS(=O)(=O)C(F)(F)F)cc1", "Peroxisome proliferator-activated receptor gamma (Homo sapiens, UniProt P37231)", "< 5.00"),
    ("CCCCS(=O)(=O)Nc1ccc(CNC(=O)c2sc(-c3ccc(C(F)(F)F)cc3)nc2C)cc1", "Peroxisome proliferator-activated receptor gamma (Homo sapiens, UniProt P37231)", 5.26),
    ("Cc1nc(-c2ccc(C(F)(F)F)cc2)sc1C(=O)NCc1ccc(NS(C)(=O)=O)cc1", "Peroxisome proliferator-activated receptor gamma (Homo sapiens, UniProt P37231)", "< 5.00"),
    ("Cc1nc(-c2ccc(C(F)(F)F)cc2)sc1C(=O)NCc1ccc(OCc2nn[nH]n2)cc1", "Peroxisome proliferator-activated receptor gamma (Homo sapiens, UniProt P37231)", "< 5.00"),
    ("Cc1nc(-c2ccc(C(F)(F)F)cc2)sc1C(=O)NCc1ccc(NS(=O)(=O)C(C)C)cc1", "Peroxisome proliferator-activated receptor gamma (Homo sapiens, UniProt P37231)", "< 5.00"),
    ("Cc1nc(-c2ccc(C(F)(F)F)cc2)sc1C(=O)NCc1ccc(NC(=O)C(F)(F)F)cc1", "Peroxisome proliferator-activated receptor gamma (Homo sapiens, UniProt P37231)", "< 5.00"),
    ("Cc1nc(-c2ccc(C(F)(F)F)cc2)sc1C(=O)NCc1ccc(NS(=O)(=O)C(F)(F)F)cc1", "Peroxisome proliferator-activated receptor gamma (Homo sapiens, UniProt P37231)", 6.30),
    ("Cc1nc(-c2ccc(C(F)(F)F)cc2)sc1C(=O)NCc1ccc(OC(C)(C)C(=O)NS(=O)(=O)C(F)(F)F)cc1", "Peroxisome proliferator-activated receptor gamma (Homo sapiens, UniProt P37231)", "< 5.00"),
    ("Cc1nc(-c2ccc(C(F)(F)F)cc2)sc1C(=O)NCc1ccc(-c2c(O)c(=O)c2=O)cc1", "Peroxisome proliferator-activated receptor gamma (Homo sapiens, UniProt P37231)", "< 5.00"),
]

Hi there! I need pEC50 for each item below, if you can.
1. Cc1nc(-c2ccc(C(F)(F)F)cc2)sc1C(=O)NCc1ccc(OC(C)(C)C(=O)O)cc1 [GW590735]
2. O=C(NCc1ccc(NS(=O)(=O)C(F)(F)F)cc1)c1ccc(-c2ccc(Cl)cc2)cc1
3. Cc1nc(-c2ccc(C(F)(F)F)cc2)sc1C(=O)NCc1ccc(NS(=O)(=O)CC(F)(F)F)cc1

Found:
1: 5.01; 2: 5.96; 3: 6.52

---

Read-out record for Peroxisome proliferator-activated receptor alpha (Mus musculus, UniProt P23204): EC50

# Smiles Record, EC50
rows = [
    ("Cc1nc(-c2ccc(C(F)(F)F)cc2)sc1C(=O)NCc1ccc(CNS(=O)(=O)C(F)(F)F)cc1", "> 10 µM"),
    ("Cc1nc(-c2ccc(C(F)(F)F)cc2)sc1C(=O)NCc1ccc(-c2c(O)c(=O)c2=O)cc1", "> 10 µM"),
    ("Cc1nc(-c2ccc(C(F)(F)F)cc2)sc1C(=O)NCc1ccc(OCc2nn[nH]n2)cc1", "> 10 µM"),
]

Please supply EC50 for each of the following items, keeping them in order.
1. CCCCS(=O)(=O)Nc1ccc(CNC(=O)c2sc(-c3ccc(C(F)(F)F)cc3)nc2C)cc1
2. COc1ccc2sc(C(=O)NCc3ccc(OC(C)(C)C(=O)O)cc3)cc2c1

Found:
["> 10 µM", "> 25 µM"]

Record EC50 for all entries; do not skip any.
1. COCc1nc(-c2ccc(C(=O)NCc3ccc(OC(C)(C)C(=O)O)cc3)cc2)no1
2. Cc1ccc(S(=O)(=O)Nc2ccc(CNC(=O)c3sc(-c4ccc(C(F)(F)F)cc4)nc3C)cc2)cc1
3. Cc1nc(-c2ccc(C(F)(F)F)cc2)sc1C(=O)NCc1ccc(NC(=O)C(F)(F)F)cc1

Found:
1. > 25 µM
2. > 10 µM
3. > 10 µM

---

Task for the reader: assign each of the following compounds its reported EC50.
molecular target: Peroxisome proliferator-activated receptor alpha (Mus musculus)
Sequence (P23204 whole entry): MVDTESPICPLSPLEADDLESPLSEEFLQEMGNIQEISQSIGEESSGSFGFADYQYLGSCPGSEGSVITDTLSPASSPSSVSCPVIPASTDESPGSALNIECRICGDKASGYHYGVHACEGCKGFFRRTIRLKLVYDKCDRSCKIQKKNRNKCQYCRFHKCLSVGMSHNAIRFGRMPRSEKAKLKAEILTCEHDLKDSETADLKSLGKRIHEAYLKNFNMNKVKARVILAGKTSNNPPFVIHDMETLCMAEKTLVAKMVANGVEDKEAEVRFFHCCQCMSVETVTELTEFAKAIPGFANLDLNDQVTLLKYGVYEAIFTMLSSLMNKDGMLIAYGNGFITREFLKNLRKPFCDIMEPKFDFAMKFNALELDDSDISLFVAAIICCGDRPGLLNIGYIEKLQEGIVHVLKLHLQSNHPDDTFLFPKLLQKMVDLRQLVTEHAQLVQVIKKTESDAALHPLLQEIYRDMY

# Smiles Record, Study Target, EC50
records = [
    ("Cc1csc(-c2ccc(C(=O)NCc3ccc(OC(C)(C)C(=O)O)cc3)cc2)n1", "Peroxisome proliferator-activated receptor alpha (Mus musculus)", "> 25 µM"),
    ("Cc1nc(-c2ccc(C(F)(F)F)cc2)sc1C(=O)NCc1ccc(OC(C)(C)C(=O)NS(=O)(=O)C(F)(F)F)cc1", "Peroxisome proliferator-activated receptor alpha (Mus musculus)", "> 10 µM"),
    ("Cc1nc(-c2ccc(C(F)(F)F)cc2)sc1C(=O)NCc1ccc(NS(=O)(=O)C(C)C)cc1", "Peroxisome proliferator-activated receptor alpha (Mus musculus)", "> 10 µM"),
]

Go through the items and report each one's EC50.
1. CC(C)(Oc1ccc(CNC(=O)Cc2ccc(-c3ccc(Cl)cc3)cc2)cc1)C(=O)O
2. CC(C)(Oc1ccc(CNC(=O)c2ccc(-c3ccc(C#N)cc3)cc2)cc1)C(=O)O

Found:
1. > 25 µM
2. > 25 µM
